Molecular target: T1, soluble FGFR3c receptor protein (human, UniProt P22607 141-372)
T1 sequence: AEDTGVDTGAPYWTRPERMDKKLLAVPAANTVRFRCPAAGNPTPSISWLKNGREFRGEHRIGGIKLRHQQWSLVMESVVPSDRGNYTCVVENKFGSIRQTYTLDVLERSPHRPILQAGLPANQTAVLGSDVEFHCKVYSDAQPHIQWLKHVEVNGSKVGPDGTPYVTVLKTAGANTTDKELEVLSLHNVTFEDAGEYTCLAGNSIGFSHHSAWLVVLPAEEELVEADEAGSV
Assay: BLI Octet RED96, antibody on anti-hIgG Fc tip
Classes based on Kd: low group = under 6 nM, middle group = from 6 nM up to 9 nM, high group = 9 nM and over

Ab19 (antibody, human IgG2, kappa, V domains shown, format in the assays not spelled out) VH: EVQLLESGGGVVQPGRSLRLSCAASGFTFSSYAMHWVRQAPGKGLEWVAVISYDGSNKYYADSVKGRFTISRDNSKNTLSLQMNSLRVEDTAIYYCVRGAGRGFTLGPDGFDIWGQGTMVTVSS VL: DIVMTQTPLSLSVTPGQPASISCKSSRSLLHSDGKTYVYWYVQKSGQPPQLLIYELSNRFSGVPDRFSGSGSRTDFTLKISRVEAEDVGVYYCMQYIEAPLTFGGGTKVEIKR
middle group
Vk11 combined with the VH of Ab15 (antibody, V domains shown, captured on anti-human IgG Fc tips) VH: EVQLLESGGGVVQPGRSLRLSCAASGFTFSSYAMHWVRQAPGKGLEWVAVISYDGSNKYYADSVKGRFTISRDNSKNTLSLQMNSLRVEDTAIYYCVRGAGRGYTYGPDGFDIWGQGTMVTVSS VL: DIVMTQSPLSLPVTPGEPASISCTSSRSLLHSDGKTYVYWYLQKPGQSPQVLIYELSNRFSGVPDRFSGSGSGTDFTLKISRVEAEDVGVYYCMQYIEAPLTFGGGTKVEIK
high group
Vk9 combined with the VH of Ab15 (antibody, V domains shown, captured on anti-human IgG Fc tips) VH: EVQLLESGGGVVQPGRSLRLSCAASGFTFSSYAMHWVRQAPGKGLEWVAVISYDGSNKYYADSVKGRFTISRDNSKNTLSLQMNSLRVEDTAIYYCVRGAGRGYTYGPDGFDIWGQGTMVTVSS VL: DIVMTQSPDSLAVSLGERATINCKSSQSLLHSDGKTYVYWYQQKPGQPPKLLIYELSNRFSGVPDRFSGSGSGTDFTLTISSLQAEDVAVYYCMQYIEAPLTFGGGTKVEIK
low group
Ab90 (antibody, human IgG2, kappa, V domains shown, format in the assays not spelled out) VH: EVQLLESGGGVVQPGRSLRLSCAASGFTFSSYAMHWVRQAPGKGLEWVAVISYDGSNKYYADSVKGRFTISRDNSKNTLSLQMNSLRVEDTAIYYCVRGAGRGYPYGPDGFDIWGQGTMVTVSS VL: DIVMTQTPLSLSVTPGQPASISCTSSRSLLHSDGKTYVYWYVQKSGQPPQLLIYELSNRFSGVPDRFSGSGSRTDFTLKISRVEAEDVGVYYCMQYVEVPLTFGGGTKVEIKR
high group
Vh1 combined with the VL of Ab15 (antibody, V domains shown, captured on anti-human IgG Fc tips) VH: EVQLVESGGGVVQPGRSLRLSCAASGFTFSSYAMHWVRQAPGKGLEWVAVISYDGSNKYYADSVKGRFTISRDNSKNTLYLQMNSLRAEDTAIYYCVRGAGRGYTYGPDGFDIWGQGTMVTVSS VL: DIVMTQTPLSLSVTPGQPASISCTSSRSLLHSDGKTYVYWYVQKSGQPPQLLIYELSNRFSGVPDRFSGSGSRTDFTLKISRVEAEDVGVYYCMQYIEAPLTFGGGTKVEIK
middle group
Vk10 combined with the VH of Ab15 (antibody, V domains shown, captured on anti-human IgG Fc tips) VH: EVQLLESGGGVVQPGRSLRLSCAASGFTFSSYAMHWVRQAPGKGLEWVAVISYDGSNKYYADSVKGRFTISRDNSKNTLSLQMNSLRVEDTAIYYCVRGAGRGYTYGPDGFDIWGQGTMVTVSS VL: DIVMTQSPDSLAVSLGERATISCTSSRSLLHSDGKTYVYWYQQKPGQPPKLLIYELSNRFSGVPDRFSGSGSRTDFTLTISSLQAEDVAVYYCMQYIEAPLTFGGGTKVEIK
low group
Vk5 combined with the VH of Ab15 (antibody, V domains shown, captured on anti-human IgG Fc tips) VH: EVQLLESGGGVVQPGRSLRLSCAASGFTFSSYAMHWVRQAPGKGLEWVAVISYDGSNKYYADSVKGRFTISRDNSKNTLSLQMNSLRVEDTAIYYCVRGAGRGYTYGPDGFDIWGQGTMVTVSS VL: DIVMTQTPLSLSVTPGQPASISCRSSRSLLHSDGKTYVYWYLQKPGQPPQLLIYELSNRFSGVPDRFSGSGSGTDFTLKISRVEAEDVGVYYCMQYIEAPLTFGGGTKVEIK
middle group
Vh2 combined with the VL of Ab15 (antibody, V domains shown, captured on anti-human IgG Fc tips) VH: EVQLVESGGGVVQPGRSLRLSCAASGFTFSSYAMHWVRQAPGKGLEWVAVISYDGSNKYYADSVKGRFTISRDNSKNTLYLQMNSLRAEDTAVYYCARGAGRGYTYGPDGFDIWGQGTMVTVSS VL: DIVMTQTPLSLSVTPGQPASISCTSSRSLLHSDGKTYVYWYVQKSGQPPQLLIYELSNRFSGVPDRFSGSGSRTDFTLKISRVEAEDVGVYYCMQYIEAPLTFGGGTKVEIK
middle group
Ab60 (antibody, human IgG2, kappa, V domains shown, format in the assays not spelled out) VH: EVQLLESGGGVVQPGRSLRLSCAASGFDFAGYAMHWVRQAPGKGLEWVAVISYDGSNKYYADSVKGRFTISRDNSKNTLSLQMNSLRVEDTAIYYCVRGAGRGLTYGPDGFDIWGQGTMVTVSS VL: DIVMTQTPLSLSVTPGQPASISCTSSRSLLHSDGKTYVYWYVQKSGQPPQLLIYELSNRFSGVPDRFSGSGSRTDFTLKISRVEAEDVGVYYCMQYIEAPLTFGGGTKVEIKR
high group

Where do the numbers come from? From patent US20180244785A1.
